Target: Glycogen synthase kinase-3 alpha (Homo sapiens, UniProt P49840)
Sequence (P49840 whole entry): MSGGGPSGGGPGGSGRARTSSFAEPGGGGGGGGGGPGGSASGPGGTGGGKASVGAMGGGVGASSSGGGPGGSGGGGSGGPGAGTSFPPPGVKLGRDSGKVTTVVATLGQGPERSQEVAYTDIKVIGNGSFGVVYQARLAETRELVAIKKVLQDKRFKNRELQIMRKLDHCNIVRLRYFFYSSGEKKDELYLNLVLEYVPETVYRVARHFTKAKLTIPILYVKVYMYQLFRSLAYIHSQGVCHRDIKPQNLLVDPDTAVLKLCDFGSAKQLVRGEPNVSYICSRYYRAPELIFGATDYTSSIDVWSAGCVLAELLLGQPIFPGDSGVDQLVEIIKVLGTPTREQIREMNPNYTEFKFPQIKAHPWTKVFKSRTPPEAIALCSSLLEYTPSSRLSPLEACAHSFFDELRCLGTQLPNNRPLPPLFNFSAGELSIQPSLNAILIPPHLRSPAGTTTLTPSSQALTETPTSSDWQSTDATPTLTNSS
Test: Inhibition of human GSK-3alpha S449A mutant (2 to end residues) using phospho GS2 peptide as substrate after 40 mins in presence of [gamma-33ATP] by scintillation counting method
So I've got a bunch of molecules here, and I need their pIC50 values.
Numbers only, as −log10 of the molar value.

Your task in this section: give pIC50 for each listed record.
1. N=C1NC(=O)/C(=C\c2ccc(-c3ccc(Cl)cc3Cl)o2)S1
2. NC1=NC(=O)/C(=C\c2ccc(-c3ccccc3[N+](=O)[O-])o2)S1
3. CC(=O)/N=C1/NC(=O)/C(=C\c2ccc(-c3ccc(C(=O)O)cc3)o2)S1
4. N=C1NC(=O)/C(=C\c2ccc(-c3cccc(Cl)c3)o2)S1
5. O=C(O)CCC(=O)N1N=C(c2c(-c3ccccc3)c3cc(Cl)ccc3[nH]c2=O)CC1c1ccco1 (centres undefined)
6. Cc1ccc(-c2ccc(/C=C3/SC(=N)NC3=O)o2)cc1Cl
7. O=C1NC(=S)N/C1=C/c1ccc(-c2cccc(C(=O)O)c2)o1
8. N=C1NC(=O)/C(=C\c2ccc(-c3cccc(C(=O)O)c3)o2)S1

Output:
5.73
5.55
6.25
6.55
4.89
6.52
6.84
6.68

Task: Form field: reported pIC50 of Cc1ccc(-c2ccc(/C=C3/NC(=S)NC3=O)o2)c(Br)c1
Output: 6.36

---

So I've got a bunch of compounds here, and I need their inhibition values.
System: Glycogen synthase kinase-3 alpha (Homo sapiens), P49840 [UNDEFINED MUTATION]
Test: Inhibition of human GSK-3alpha S449A mutant (2 to end residues) at 10 uM using phospho GS2 peptide as substrate after 40 mins in presence of [gamma-33ATP] by scintillation counting method relative to control
Answers are plain numbers, in %.

COc1ccc(CNc2cc(-c3ccco3)n[nH]2)cc1 :: 1
O=C(N/N=C/c1cccc(Cl)c1)c1cc(-c2ccc3c4c(cccc24)CC3)[nH]n1 :: 52
Cc1c(Cl)cccc1-c1ccc(CNc2nc[nH]n2)o1 :: 8

Your task in this section: give inhibition for each listed record.
1. O=C1N/C(=N/c2ccccc2)S/C1=C/c1ccc(Sc2ccc(Cl)cc2)o1
2. Cc1cc([N+](=O)[O-])ccc1-c1ccc(/C=C2/SC(=N)NC2=O)o1
3. Cc1ccc(Cl)cc1-c1ccc(/C=C2/S/C(=N\c3ccccc3)NC2=O)o1
4. O=C1NC(=S)NC(=O)C1=Cc1ccc(-c2cc(Cl)ccc2Cl)o1
5. COc1cc(CNc2nn[nH]n2)ccc1OCC(N)=O

Output:
[47, 44, 0, 26, 1]

Your task in this section: give inhibition for each listed record.
1. COc1ccc(-c2ccc(CNc3n[nH]c(C)n3)o2)cc1Cl
2. CC1=NN(c2cccc(C(=O)O)c2)C(=O)/C1=C\c1ccc(-c2ccc3c(c2)C(=O)NC3=O)o1
3. COc1ccc(-c2n[nH]cc2/C=N\NC(=O)c2ccccc2I)cc1OC
4. Cc1ccc(SCc2[nH]nc3c2C(c2ccnc4ccccc24)C(C#N)=C(N)O3)cc1 (configuration not stated)
5. CCN1C(=O)/C(=C\c2ccc(-c3ccc(C(=O)O)cc3)o2)N(CC)C1=S
6. O=C(O)CCC(=O)N1N=C(c2c(O)nc3ccc(Cl)cc3c2-c2ccccc2)CC1c1ccco1 (configuration not stated)

Output:
8
58
44
2
38
67

Your task in this section: give inhibition for each listed record.
1. O=C(COC(=O)c1cc(O)nc2ccccc12)c1cccc2ccccc12
2. O=C1NC(=S)N/C1=C/c1ccc(-c2ccccc2Cl)o1
3. CC(=O)/N=C1/NC(=O)/C(=C\c2ccc(-c3ccc(C)c(Cl)c3)o2)S1
4. O=C1NC(=S)N/C1=C/c1ccc(-c2ccc([N+](=O)[O-])cc2)o1

Output:
1. 2
2. 84
3. 21
4. 88

---

Biological target: Glycogen synthase kinase-3 beta (Homo sapiens)
Test: Inhibition of human GSK-3beta using YRRAAVPPSPSLSRHSSPHQ(pS)EDEEE as substrate measured in presence of [gamma-33P]ATP by radiometric assay
Parameter Measured: pIC50
Give bare numbers, as −log10 of the molar value.

Task: Form field: reported pIC50 of c1ccc(-c2noc(CSc3nnc(-c4ccncc4)o3)n2)cc1
Output: 6.28

---

So I've got a bunch of molecules here, and I need their inhibition values.
System: Glycogen synthase kinase-3 alpha (Homo sapiens), P49840 [UNDEFINED MUTATION]
Assay: Inhibition of human GSK-3alpha S449A mutant (2 to end residues) at 10 uM using phospho GS2 peptide as substrate after 40 mins in presence of [gamma-33ATP] by scintillation counting method relative to control

N#Cc1cn(CCCN2CCN(CCCn3cc(C#N)c(=O)[nH]c3=O)CC2)c(=O)[nH]c1=O :: 2%
O=C1NC(=S)N/C1=C/c1ccc(-c2c(Br)cc([N+](=O)[O-])cc2Br)o1 :: 42%

Your task in this section: give inhibition for each listed record.
1. N#Cc1ccccc1-c1ccc(C=C2C(=O)NC(=S)NC2=O)o1
2. Cc1ccc(-c2ccc(/C=C3/NC(=S)NC3=O)o2)cc1Cl
3. Cc1ccc(OCc2n[nH]c(Nc3ccccc3)n2)cc1

Output:
1: 14%; 2: 76%; 3: 5%

Your task in this section: give inhibition for each listed record.
1. CCCCCSc1nc2c(c(=O)[nH]c(=O)n2C)n1CC(O)COc1ccccc1 (configuration not stated)
2. NC(=O)Cc1nc2sc3c(c2c(=O)[nH]1)CCN(Cc1ccccc1)C3
3. N=C1NC(=O)/C(=C\c2ccc(-c3ccccc3Cl)o2)S1
4. Cc1[nH]nc2c1C(c1ccnc3ccccc13)C(C#N)=C(N)O2 (configuration not stated)
5. CC(=O)/N=C1/NC(=O)/C(=C\c2ccc(-c3ccc(F)cc3F)o2)S1
6. O=C1NC(=S)N/C1=C/c1ccc(-c2ccc(C(=O)O)cc2)o1
7. N=C1NC(=O)/C(=C\c2ccc(-c3ccc(Cl)c([N+](=O)[O-])c3)o2)S1
8. N#CC1=C(N)Oc2[nH]nc(-c3cccnc3)c2/C1=C1\C(=O)Nc2ccc(Br)cc21

Output:
1. 25%
2. -1%
3. 95%
4. 6%
5. 15%
6. 97%
7. 49%
8. 2%

---

So I've got a bunch of compounds here, and I need their pIC50 values.
Target: Glycogen synthase kinase-3 beta (Homo sapiens, UniProt P49841, H350L)
Sequence (P49841 whole entry, looked up, stated change not applied): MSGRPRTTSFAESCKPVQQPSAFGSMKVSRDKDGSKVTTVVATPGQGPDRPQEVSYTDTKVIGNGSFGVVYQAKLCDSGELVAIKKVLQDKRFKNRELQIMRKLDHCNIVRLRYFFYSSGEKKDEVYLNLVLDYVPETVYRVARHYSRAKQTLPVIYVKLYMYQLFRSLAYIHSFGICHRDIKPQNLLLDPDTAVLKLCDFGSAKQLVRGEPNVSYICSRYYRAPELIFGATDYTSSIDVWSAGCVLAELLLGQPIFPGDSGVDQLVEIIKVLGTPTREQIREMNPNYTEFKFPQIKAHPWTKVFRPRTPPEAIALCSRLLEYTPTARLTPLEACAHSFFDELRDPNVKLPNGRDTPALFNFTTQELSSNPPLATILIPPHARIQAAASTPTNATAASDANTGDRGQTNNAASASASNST
Assay: Inhibition of human GSK-3beta H350L mutant (2 to end residues) at 10 uM using phospho GS2 peptide as substrate after 40 mins by [gamma-33ATP] radiometric assay
Answers are plain numbers, as −log10 of the molar value.

C=CCOC(=O)c1cc(-c2ccc(/C=C3/NC(=S)NC3=O)o2)ccc1Cl :: 6.66
O=C1NC(=S)N/C1=C/c1ccc(-c2ccc(Cl)c(Cl)c2)o1 :: 6.17
N=C1NC(=O)/C(=C\c2ccc(-c3ccc(Cl)c(Cl)c3)o2)S1 :: 6.24

Your task in this section: give pIC50 for each listed record.
1. Cc1ccc(-c2ccc(/C=C3/NC(=S)NC3=O)o2)c(Br)c1
2. N=C1NC(=O)/C(=C\c2ccc(-c3cccc([N+](=O)[O-])c3)o2)S1
3. Cc1c(-c2ccc(/C=C3/SC(=N)NC3=O)o2)ccc([N+](=O)[O-])c1C
4. Cc1ccc(-c2ccc(/C=C3/SC(=N)NC3=O)o2)cc1Cl
5. CN1C(=N)NC(=O)/C1=C\c1ccc(-c2ccc(F)cc2)o1
6. N=C1NC(=O)/C(=C\c2ccc(-c3cc([N+](=O)[O-])ccc3Cl)o2)S1
7. NC1=NC(=O)/C(=C\c2ccc(-c3ccccc3[N+](=O)[O-])o2)S1
8. CCCCOC(=O)c1cc(-c2ccc(/C=C3/NC(=S)NC3=O)o2)ccc1Cl

Output:
6.06
6.96
6.24
5.84
5.72
5.75
5.60
5.92

Your task in this section: give pIC50 for each listed record.
1. Cc1ccc(-c2ccc(/C=C3/SC(=N)NC3=O)o2)c([N+](=O)[O-])c1
2. Cc1ccc(-c2ccc(/C=C3/NC(=S)NC3=O)o2)cc1Cl
3. N=C1NC(=O)/C(=C\c2ccc(-c3ccc(Cl)cc3Cl)o2)S1
4. N=C1NC(=O)/C(=C\c2ccc(-c3cccc(Cl)c3)o2)S1
5. O=C1NC(=S)N/C1=C/c1ccc(-c2ccccc2Cl)o1
6. O=C1NC(=O)C(c2cnc3ccccn23)=C1c1cn2c3c(cc(F)cc13)CN(C(=O)N1CCCCC1)CC2
7. N=C1NC(=O)/C(=C\c2ccc(-c3ccccc3Cl)o2)S1

Output:
1: 6.49; 2: 5.89; 3: 5.92; 4: 6.12; 5: 6.04; 6: 8.89; 7: 6.25

Your task in this section: give pIC50 for each listed record.
1. N=C1NC(=O)/C(=C\c2ccc(-c3cccc(C(=O)O)c3)o2)S1
2. O=C1NC(=S)N/C1=C/c1ccc(-c2cccc(C(=O)O)c2)o1
3. CCCOC(=O)c1cc(-c2ccc(/C=C3/NC(=S)NC3=O)o2)ccc1Cl

Output:
1. 6.51
2. 6.47
3. 6.39
